assay-overview: In vitro-in vivo extrapolation (IVIVE) to Css and administered equivalent dose (AED)
Design: species or system human
condition-description: fub=fup/(B:P); Fub set to 1 if needed
Method: Using the experimentally generated PPB (fraction unbound in plasma, fup) and hepatic Clint data, IVIVE was performed as previously described to calculate human steady-state plasma concentrations (Css). Briefly, experimental measures of fup are adjusted using blood:plasma partitioning information to estimate the fraction unbound in blood (fub). Experimental hepatocyte Clint data are scaled up to represent whole-liver clearance (L/h). […]
Entries and their Fub

- NC(=O)C(F)(F)C(F)(F)C(F)(F)C(F)(F)C(N)=O [Octafluoroadipamide]: 1

Task item: Read the entry Cc1ccc(S(=O)(=O)OCC(F)(F)C(F)(F)C(F)(F)C(F)(F)C(F)(F)C(F)F)cc1 and write its reported Fub.
Reply: 0.002357

Task item: Read the entry NS(=O)(=O)C(F)(F)C(F)(F)C(F)(F)C(F)(F)C(F)(F)C(F)(F)C(F)(F)C(F)(F)F [Perfluorooctanesulfonamide, reference compound] and write its reported Fub.
Reply: 0.007091

Task item: Read the entry O=S(=O)([O-])C(F)(F)C(F)(F)C(F)(F)C(F)(F)C(F)(F)C(F)(F)C(F)(F)C(F)(F)F.[K+] [Potassium perfluorooctanesulfonate, reference compound] and write its reported Fub.
Reply: 0.007273

Task item: Read the entry N.O=C(O)C(F)(F)C(F)(F)C(F)(F)C(F)(F)C(F)(F)C(F)(F)C(F)(F)F [Ammonium perfluorooctanoate (PFOA), Ammonium perfluorooctanoate, reference compound] and write its reported Fub.
Reply: 0.001091

---

Entries and their Fup.point
Test system: human plasma
assay-overview: Ultracentrifugation (UC) plasma protein binding assay, fraction unbound in plasma (fup)
condition-description: point estimate of fraction unbound in plasma, UC assay Level4
The answer should be a number; do not append a unit.

Example compounds with recorded Fup.point:
- OCC(F)(F)C(F)(F)C(F)(F)C(F)(F)C(F)(F)C(F)(F)C(F)(F)C(F)(F)C(F)(F)C(F)(F)C(F)(F)F [11:1 Fluorotelomer alcohol]: 0.0621
- FC(F)(I)C(F)(F)C(F)(F)C(F)(F)I [Perfluoro-1,4-diiodobutane]: 0.00533
- NC(O)(C(F)(F)F)C(F)(F)F [2-Aminohexafluoropropan-2-ol]: 0.963

Task item: Read the entry NCC(F)(F)C(F)(F)C(F)(F)C(F)(F)C(F)(F)C(F)(F)C(F)(F)C(F)(F)F [1H,1H-Perfluorononylamine] and write its reported Fup.point.
Reply: 0.0359

Task item: Read the entry NC(=O)C(F)(F)C(F)(F)C(F)(F)C(F)(F)C(N)=O [Octafluoroadipamide] and write its reported Fup.point.
Reply: 0.834

Task item: Read the entry NCC(F)(F)C(F)(F)C(F)(F)C(F)(F)C(F)(F)C(F)(F)C(F)(F)F [1H,1H-Perfluorooctylamine] and write its reported Fup.point.
Reply: 0.345

Task item: Read the entry OCCCCC(F)(F)C(F)(F)C(F)(F)C(F)(F)F [4:4 Fluorotelomer alcohol] and write its reported Fup.point.
Reply: 0.0704

Task item: Read the entry C=CC(=O)OCC(F)(F)C(F)(F)C(F)(F)COC(=O)C=C and write its reported Fup.point.
Reply: 0.177

Task item: Read the entry OCC(F)(F)C(F)(F)C(F)(F)C(F)(F)C(F)(F)C(F)(F)C(F)(F)C(F)(F)CO [1H,1H,10H,10H-Perfluorodecane-1,10-diol] and write its reported Fup.point.
Reply: 0.00496

Task item: Read the entry OCCC(F)(F)C(F)(F)C(F)(F)C(F)(F)C(F)(F)C(F)(F)C(F)(F)C(F)(F)F [8:2 Fluorotelomer alcohol] and write its reported Fup.point.
Reply: 0.0243

Task item: Read the entry C=CC(=O)OCCC(F)(F)C(F)(F)C(F)(F)C(F)(F)F [2-(Perfluorobutyl)ethyl acrylate] and write its reported Fup.point.
Reply: 0.078

Task item: Read the entry OCCCC(F)(F)C(F)(F)C(F)(F)F [3-(Perfluoropropyl)propanol] and write its reported Fup.point.
Reply: 0.205

Task item: Read the entry N=C(N)C(F)(F)C(F)(F)C(F)(F)C(F)(F)C(F)(F)C(F)(F)C(F)(F)F [Perfluorooctanamidine] and write its reported Fup.point.
Reply: 0.0261

Task item: Read the entry OCCC(F)(F)C(F)(F)C(F)(F)C(F)(F)C(F)(F)C(F)(F)F [6:2 Fluorotelomer alcohol] and write its reported Fup.point.
Reply: 0.152

Task item: Read the entry FC(F)(F)C(F)(F)C(F)(F)C(F)(F)CCI [1H,1H,2H,2H-Perfluorohexyl iodide] and write its reported Fup.point.
Reply: 0.0905

Task item: Read the entry Cc1ccc([N+](=O)[O-])cc1 [4-Nitrotoluene, 4-nitrotoluene, reference compound] and write its reported Fup.point.
Reply: 0.0612

---

Entries and their hepatocyte CLint at 1 μM
assay-overview: Hepatic metabolic stability (hepatocyte clearance) assay, substrate depletion
Format: in vitro ADME, human
condition-description: both sexes, human, hepatocytes, Unadj Clint
// unit must come after the numeric part

* OCC(F)(F)OC(F)(F)C(F)(F)OC(F)(F)C(F)(F)OC(F)(F)CO | 24.3 µL/min/1e6 cells

Proceeding to the next molecule to report its hepatocyte CLint at 1 μM.
Task item: Read the entry OCC(F)(F)OC(F)(F)C(F)(F)OC(F)(F)CO and write its reported hepatocyte CLint at 1 μM.
Reply: 6.72 µL/min/1e6 cells

---

Entries and their Fstable.Med
Tested on: human plasma
assay-overview: Chemical stability in plasma over the UC assay time course (T5hr/T1hr)
condition-description: median fraction stable in plasma, UC assay Level4
The answer should be a number; do not append a unit.

Example compounds with recorded Fstable.Med:
• C=CC(=O)OCCC(F)(F)C(F)(F)C(F)(F)C(F)(F)F [2-(Perfluorobutyl)ethyl acrylate] = 0.000485
• Cc1ccc([N+](=O)[O-])cc1 [4-Nitrotoluene, 4-nitrotoluene, reference compound] = 0.779
• CN(C(=O)C(F)(F)C(F)(F)C(F)(F)F)[Si](C)(C)C = 0.274
• OCCC(F)(F)C(F)(F)C(F)(F)C(F)(F)C(F)(F)C(F)(F)F [6:2 Fluorotelomer alcohol] = 0.205
• OCC(F)(F)C(F)(F)C(F)(F)C(F)F [1H,1H,5H-Perfluoropentanol] = 1

Proceeding to the next compound to report its Fstable.Med.
Task item: Read the entry OCCC(F)(F)C(F)(F)C(F)(F)C(F)(F)F [4:2 Fluorotelomer alcohol] and write its reported Fstable.Med.
Reply: 0.21

---

Entries and their fraction unbound
assay-overview: in vitro
condition-description: both, human, plasma, Fraction Unbound (fu), individual replicates A, B, C of the UC run named in c8
The answer should be a number; do not append a unit.

Example compounds with recorded fraction unbound:
• OCC(F)(F)C(F)(F)C(F)(F)C(F)(F)C(F)(F)C(F)(F)C(F)(F)C(F)(F)CO [1H,1H,10H,10H-Perfluorodecane-1,10-diol] = 0.83
• OCC(F)(F)C(F)(F)C(F)(F)C(F)(F)C(F)(F)C(F)(F)CO [1H,1H,8H,8H-Perfluorooctane-1,8-diol] = 0.0626
• FC(F)(I)C(F)(F)C(F)(F)C(F)(F)I [Perfluoro-1,4-diiodobutane] = 0.00698

Proceeding to the next compound to report its fraction unbound.
Task item: Read the entry OCC(F)(F)C(F)(F)C(F)(F)CO [Hexafluoroamylene] and write its reported fraction unbound.
Reply: 0.0437

---

System: human plasma
assay-overview: Ultracentrifugation (UC) plasma protein binding assay, fraction unbound in plasma (fup)
condition-description: human plasma, 10 μM, ultracentrifugation, 37 °C
readout-name: fup
The answer should be a number; do not append a unit.

Example molecules with recorded fup:
- NC(=O)C(F)(F)C(F)(F)C(F)(F)C(F)(F)F [Nonafluoropentanamide]: 0.1985
- OCC(F)(F)C(F)(F)C(F)(F)CO [Hexafluoroamylene glycol]: 0.6770
- NC(=O)C(F)(F)C(F)(F)C(F)(F)F [Heptafluorobutyramide]: 0.6030
- OCC(F)(F)C(F)(F)C(F)(F)C(F)(F)C(F)(F)C(F)(F)CO [1H,1H,8H,8H-Perfluorooctane-1,8-diol]: 0.0560
- OCC(F)(F)C(F)(F)C(F)(F)C(F)(F)C(F)(F)C(F)(F)C(F)(F)C(F)(F)CO [1H,1H,10H,10H-Perfluorodecane-1,10-diol]: 0.0047

Proceeding to the next molecule to report its fup.
Task item: Read the entry NC(=O)C(F)(F)C(F)(F)C(F)(F)C(F)(F)C(N)=O [Octafluoroadipamide] and write its reported fup.
Reply: 0.8201

---

Tested on: human plasma
condition-description: both, human, 5 h, 10 μM
Entries and their Fup.point
The answer should be a number; do not append a unit.

Task item: Read the entry NC(=O)C(F)(F)C(F)(F)F [Pentafluoropropionamide] and write its reported Fup.point.
Reply: 0.789

Task item: Read the entry C=CC(=O)OCC(F)(F)C(F)F [2,2,3,3-Tetrafluoropropyl acrylate] and write its reported Fup.point.
Reply: 0.234

Task item: Read the entry OCC(F)(F)OC(F)(F)C(F)(F)OC(F)(F)CO and write its reported Fup.point.
Reply: 0.207

Task item: Read the entry OCC(F)(F)OC(F)(F)C(F)(F)OC(F)(F)C(F)(F)OC(F)(F)CO and write its reported Fup.point.
Reply: 0.0127

Task item: Read the entry COC(=O)C(F)(F)C(F)(F)OC(F)(C(F)(F)F)C(F)(F)OC(F)=C(F)F (centres unmarked) and write its reported Fup.point.
Reply: 0.0235
